- TARGET_SYSTEM: human β2‐adrenoceptor (Homo sapiens, UniProt P07550)
- Sequence (P07550 whole entry): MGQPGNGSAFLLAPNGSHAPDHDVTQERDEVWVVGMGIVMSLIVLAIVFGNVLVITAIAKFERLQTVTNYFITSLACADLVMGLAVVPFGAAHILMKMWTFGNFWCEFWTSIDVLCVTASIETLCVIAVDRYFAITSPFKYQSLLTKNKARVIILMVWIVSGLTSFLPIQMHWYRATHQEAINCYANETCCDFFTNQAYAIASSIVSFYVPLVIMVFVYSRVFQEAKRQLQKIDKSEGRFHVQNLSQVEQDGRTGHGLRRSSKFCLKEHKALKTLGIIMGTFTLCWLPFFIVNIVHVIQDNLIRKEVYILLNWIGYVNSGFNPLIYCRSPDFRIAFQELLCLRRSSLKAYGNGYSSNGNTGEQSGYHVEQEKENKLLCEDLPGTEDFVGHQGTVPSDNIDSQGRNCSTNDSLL
- Assay type: binding
- SETUP_CONDITIONS: printed as log IC50 bound (negative) in the Log KD β2 column; 3H-CGP12177
READOUT_NAME: IC50 (log) β2

CN1CC[C@]2(CCN3CCc4c(oc5ccccc45)[C@@H]3C2)N(C)C1=O [MK-912] : IC50>-4
COc1cc2nc(N3CCN(C(=O)COc4c(OC)cccc4C(C)C)CC3)nc(N)c2cc1OC [Rec15-2615] : IC50>-4
O=C1Nc2ccccc2C2=NC(CN3CCN(c4ccccc4)CC3)CN12 (centres unmarked) [2-PMDQ] : IC50>-4
COc1ccccc1N1CCN(CC2CN3C(=O)N(C)c4ccccc4C3=N2)CC1 (centres unmarked) [2-MPMDQ] : IC50>-5

Input: Given the compound COc1ccccc1N1CCN(CCN2C(=O)c3ccccc3C(C)(C)C2=O)CC1 [ARC 239] , what is its reported IC50 (log) β2?
Output: IC50>-5
